System: BPH-1;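 note: cell viability assay measuring growth inhibition of human BPH-1 cells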
assay-remarks: cells
Format: functional, cell-based, Homo sapiens
measurement-setup: Homo sapiens, BPH-1
Description: SANGER: Inhibition of human BPH-1 cell growth in a cell viability assay.
measured-endpoint: IC50

# compound, tested-target, IC50
records = [
    ("Cc1ccc(Nc2nccc(N(C)c3ccc4c(C)n(C)nc4c3)n2)cc1S(N)(=O)=O", "BPH-1", "> 8 µM"),
    ("CN(c1ncccc1CNc1nc(Nc2ccc3c(c2)CC(=O)N3)ncc1C(F)(F)F)S(C)(=O)=O", "BPH-1", "1.29 µM"),
    ("Cn1cc(C2=C(c3ccc(Cl)cc3Cl)C(=O)NC2=O)c2ccccc21", "BPH-1", "> 10 µM"),
    ("COc1cc(F)c(F)c(Nc2ccc(I)cc2F)c1NS(=O)(=O)C1(CC(O)CO)CC1 (configuration not stated)", "BPH-1", "0.135 µM"),
    ("O=c1cc(-c2cccc3c2Sc2ccccc2S3)oc(N2CCOCC2)c1", "BPH-1", "> 10 µM"),
]

Can you give me IC50 for all of these, one by one?
1. COc1ccc(C2=N[C@@H](c3ccc(Cl)cc3)[C@@H](c3ccc(Cl)cc3)N2C(=O)N2CCNC(=O)C2)c(OC(C)C)c1
2. CC(=O)O[C@@]12CO[C@@H]1C[C@H](O)[C@@]1(C)C(=O)[C@H](O)C3=C(C)[C@@H](OC(=O)[C@H](O)[C@@H](NC(=O)OC(C)(C)C)c4ccccc4)C[C@@](O)([C@@H](OC(=O)c4ccccc4)[C@H]21)C3(C)C

# output
1: > 8 µM; 2: 0.00102 µM

###

System: KURAMOCHI;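 note: growth inhibition of KURAMOCHI cells, read out with a cell viability assay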
assay-remarks: cells
Assay type: functional, cell-based
measurement-setup: Homo sapiens
Description: SANGER: Inhibition of human KURAMOCHI cell growth in a cell viability assay.
Kindly supply the reported IC50 values for the records listed here.

As a guide, the following entries are already answered.
# compound, IC50
measured = [
    ("C=CCc1cccc(/C=N/NC(=O)CN2CCN(Cc3ccccc3)CC2)c1O [PAC-1]", "> 2.56 µM"),
    ("CS(=O)(=O)CCNCc1ccc(-c2ccc3ncnc(Nc4ccc(OCc5cccc(F)c5)c(Cl)c4)c3c2)o1 [LAPATINIB]", "> 2 µM"),
    ("Cc1ccc(Nc2nccc(N(C)c3ccc4c(C)n(C)nc4c3)n2)cc1S(N)(=O)=O [PAZOPANIB]", "> 8 µM"),
    ("O=C(NOCC1CC1)c1ccc(F)c(F)c1Nc1ccc(I)cc1Cl [CI-1040]", "> 10 µM"),
    ("COC(=O)CNC(=O)C(=O)OC", "1570 µM"),
]

Can you give me IC50 for all of these, one by one?
1. CNC(=O)c1cc(Oc2ccc(NC(=O)Nc3ccc(Cl)c(C(F)(F)F)c3)cc2)ccn1 [SORAFENIB]
2. CC(=O)O[C@@H]1[C@@H](OC(C)=O)[C@@H](O)[C@H](Oc2c(-c3ccc(O)cc3)oc3cc(O)cc(O)c3c2=O)O[C@H]1C
3. COc1ccc(C2=N[C@@H](c3ccc(Cl)cc3)[C@@H](c3ccc(Cl)cc3)N2C(=O)N2CCNC(=O)C2)c(OC(C)C)c1 [NUTLIN-3]
4. Cn1cncc1[C@@](N)(c1ccc(Cl)cc1)c1ccc2c(c1)c(-c1cccc(Cl)c1)cc(=O)n2C [TIPIFARNIB]
5. COc1cc(F)c(F)c(Nc2ccc(I)cc2F)c1NS(=O)(=O)C1(CC(O)CO)CC1 (stereo unspecified)
6. C[C@]1(O)C[C@@H](c2nc(-c3ccc4ccc(-c5ccccc5)nc4c3)c3c(N)nccn32)C1 [LINSITINIB]

# output
1. > 4 µM
2. > 10 µM
3. > 8 µM
4. 4.78 µM
5. > 5 µM
6. > 2.56 µM

###

Tested on: LB996-RCC
assay-remarks: cells
Assay type: functional, cell-based
measurement-setup: Homo sapiens
Description: SANGER: Inhibition of human LB996-RCC cell growth in a cell viability assay.
Kindly supply the reported IC50 values for the records listed here.
Numbers only, in µM.

# smiles-notation, measured-endpoint, units-of-measure, value-measured
data = [
    ("CS(=O)(=O)CCNCc1ccc(-c2ccc3ncnc(Nc4ccc(OCc5cccc(F)c5)c(Cl)c4)c3c2)o1", "IC50", "µM", 1.36),
]

Okay, next one:
# input Please report the recorded IC50 for CCC(=O)N1CCN(c2ccc(-n3c(=O)ccc4cnc5ccc(-c6cnc7ccccc7c6)cc5c43)cc2C(F)(F)F)CC1 .
# output 0.0114

###

Tested on: SNB-75;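 note: cell viability assay measuring growth inhibition of human SNB-75 cells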
assay-remarks: cells
Format: functional, cell-based, Homo sapiens
measurement-setup: Homo sapiens, SNB-75
Description: SANGER: Inhibition of human SNB75 cell growth in a cell viability assay.
measured-endpoint: IC50

Can you give me IC50 for all of these, one by one?
1. CN(c1ncccc1CNc1nc(Nc2ccc3c(c2)CC(=O)N3)ncc1C(F)(F)F)S(C)(=O)=O
2. C=CCc1cccc(/C=N/NC(=O)CN2CCN(Cc3ccccc3)CC2)c1O
3. CN(C)C/C=C/C(=O)Nc1cc2c(Nc3ccc(F)c(Cl)c3)ncnc2cc1O[C@H]1CCOC1
4. Cc1cnc(-c2cnc(NCCNc3ccc(C#N)cn3)nc2-c2ccc(Cl)cc2Cl)[nH]1
5. CCC1=C[C@@H]2CN(C1)Cc1c([nH]c3ccccc13)[C@@](C(=O)OC)(c1cc3c(cc1OC)N(C)[C@H]1[C@@](O)(C(=O)OC)[C@H](OC(C)=O)[C@]4(CC)C=CCN5CC[C@]31[C@@H]54)C2
6. CNC(=O)c1cc(Oc2ccc(NC(=O)Nc3ccc(Cl)c(C(F)(F)F)c3)cc2)ccn1
7. C=C1C(=O)O[C@@H]2C3O[C@]3(C)CC/C=C(\C)CC[C@@H]12 (stereo partly drawn)
8. O=C1N=C(NCc2cccs2)S/C1=C\c1ccc2ncccc2c1

# output
["> 2560 nM", "> 2560 nM", "> 500 nM", "> 2560 nM", "12.5 nM", "> 4000 nM", "> 5000 nM", "> 5000 nM"]

###

Tested on: NCI-H727
assay-remarks: cells
Type: functional, cell-based, Homo sapiens
measurement-setup: Homo sapiens, NCI-H727
Description: SANGER: Inhibition of human NCI-H727 cell growth in a cell viability assay.
Kindly supply the reported IC50 values for the records listed here.

# smiles-notation, tested-target, IC50
data = [
    ("C[C@]1(O)C[C@@H](c2nc(-c3ccc4ccc(-c5ccccc5)nc4c3)c3c(N)nccn32)C1", "NCI-H727", "0.198 µM"),
    ("O=c1cc(-c2cccc3c2Sc2ccccc2S3)oc(N2CCOCC2)c1", "NCI-H727", "> 10 µM"),
    ("CN(c1ncccc1CNc1nc(Nc2ccc3c(c2)CC(=O)N3)ncc1C(F)(F)F)S(C)(=O)=O", "NCI-H727", "> 2.56 µM"),
    ("O=C1N=C(NCc2cccs2)S/C1=C\\c1ccc2ncccc2c1", "NCI-H727", "> 5 µM"),
]

Can you give me IC50 for all of these, one by one?
1. O=C(c1cc(Cc2n[nH]c(=O)c3ccccc23)ccc1F)N1CCN(C(=O)C2CC2)CC1
2. COc1ccc(C2=N[C@@H](c3ccc(Cl)cc3)[C@@H](c3ccc(Cl)cc3)N2C(=O)N2CCNC(=O)C2)c(OC(C)C)c1
3. COC(=O)CNC(=O)C(=O)OC

# output
1. > 5 µM
2. > 8 µM
3. > 4000 µM

###

Tested on: HOS
assay-remarks: cells
Format: functional, cell-based, Homo sapiens
measurement-setup: Homo sapiens, HOS
Description: SANGER: Inhibition of human HOS cell growth in a cell viability assay.
pIC50: −log10 of the molar value.
measured-endpoint: pIC50

As a guide, the following entries are already answered.
# compound, pIC50
data = [
    ("CC(=O)O[C@@]12CO[C@@H]1C[C@H](O)[C@@]1(C)C(=O)[C@H](O)C3=C(C)[C@@H](OC(=O)[C@H](O)[C@@H](NC(=O)OC(C)(C)C)c4ccccc4)C[C@@](O)([C@@H](OC(=O)c4ccccc4)[C@H]21)C3(C)C", 9.11),
    ("Cc1ccc(Nc2nccc(N(C)c3ccc4c(C)n(C)nc4c3)n2)cc1S(N)(=O)=O", "< 5.10"),
]

Can you give me pIC50 for all of these, one by one?
1. Cn1cc(C2=C(c3ccc(Cl)cc3Cl)C(=O)NC2=O)c2ccccc21
2. COC(=O)CNC(=O)C(=O)OC
3. CN(Cc1cnc2nc(N)nc(N)c2n1)c1ccc(C(=O)N[C@@H](CCC(=O)O)C(=O)O)cc1 [METHOTREXATE]

# output
1: < 5.00; 2: 3.20; 3: < 6.70

# input Please report the recorded pIC50 for CCOc1nc(NC(=O)Cc2cc(OC)ccc2OC)cc(N)c1C#N .
# output < 5.00

###

Tested on: BXPC-3;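 note: growth inhibition of human BxPC-3 cells, read out by a cell viability assay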
assay-remarks: cells
Format: functional, cell-based, Homo sapiens
measurement-setup: Homo sapiens, BXPC-3
Description: SANGER: Inhibition of human BxPC-3 cell growth in a cell viability assay.
measured-endpoint: pIC50
Numbers only, as −log10 of the molar value.

As a guide, the following entries are already answered.
# compound, pIC50
rows = [
    ("COc1cc(F)c(F)c(Nc2ccc(I)cc2F)c1NS(=O)(=O)C1(CC(O)CO)CC1 (configuration not stated)", 5.80),
    ("COC(=O)CNC(=O)C(=O)OC", 3.19),
    ("CN(c1ncccc1CNc1nc(Nc2ccc3c(c2)CC(=O)N3)ncc1C(F)(F)F)S(C)(=O)=O", 5.63),
    ("CC(=O)O[C@@]12CO[C@@H]1C[C@H](O)[C@@]1(C)C(=O)[C@H](O)C3=C(C)[C@@H](OC(=O)[C@H](O)[C@@H](NC(=O)OC(C)(C)C)c4ccccc4)C[C@@](O)([C@@H](OC(=O)c4ccccc4)[C@H]21)C3(C)C", 8.60),
    ("C=CCc1cccc(/C=N/NC(=O)CN2CCN(Cc3ccccc3)CC2)c1O", 5.68),
]

Okay, next one:
# input Please report the recorded pIC50 for Cn1cncc1[C@@](N)(c1ccc(Cl)cc1)c1ccc2c(c1)c(-c1cccc(Cl)c1)cc(=O)n2C .
# output 5.36
